- Test system: Cerebrospinal fluid
- test-description: Drug level in rat cerebrospinal fluid at 30 mg/kg, sc
- Type: ADME, organism-based
- Design: dose 30 mg/kg, route subcutaneous
- condition-parameters: in vivo
Each entry below lists one item and its recorded Drug uptake value.

substance-smiles: CN(CCOc1ccc(-c2ccccc2)cc1-c1ccccc1Cl)CC(=O)O
Drug uptake: 25 ng/mL
--
substance-smiles: CN(CCOc1ccc(-c2ccccc2)cc1C(=O)c1cccs1)CC(=O)O
Drug uptake: 15 ng/mL
--
substance-smiles: CN(CCOc1ccc(-c2ccccc2)cc1-c1cccs1)CC(=O)O
Drug uptake: 113 ng/mL
--
substance-smiles: CN(CC[C@@H](Oc1ccc(-c2ccccc2)cc1)c1ccc(F)cc1)CC(=O)O
Drug uptake: 47 ng/mL

Data provenance is ChEMBL document CHEMBL1139759.
